Test system: Amaranthus retoflexus (AMARE)
Assay: Post-emergence herbicidal test
Assay type: in vivo
Conditions: 1000 g/ha unless otherwise stated, evaluated after 13 days
Procedure: Seeds of a variety of test species are sown in standard soil in pots (Amaranthus retoflexus (AMARE), Solanum nigrum (SOLNI), Setaria faberi (SETFA), Lolium perenne (LOLPE), Echinochloa crus-galli (ECHCG), Ipomoea hederacea (IPOHE), Abutilon theophrasti (ABUTH), Zea mays (ZEAMX)). […] After 13 days the test is evaluated for the percentage damage caused to the plant. […]
measured_metric: percentage damage caused to the plant, AMARE (five-point scale)

Asked: Data request, read-out percentage damage caused to the plant, AMARE (five-point scale), for CC(C)Cc1cc(S(C)(=O)=O)c2c(=O)c(C(=O)O)nn(-c3ccc(OC(F)(F)F)cc3)c2c1 [Compound P14]
Given back: 1 (1=10-20%)

Asked: // repeat for CN(C)CCOC(=O)c1nn(-c2ccc(OC(F)(F)F)cc2)c2cccc(S(C)(=O)=O)c2c1=O [Compound P76] and report
Given back: 1 (1=10-20%)

Asked: // repeat for CS(=O)(=O)c1cc(Br)cc2c1c(=O)c(C(=O)O)nn2-c1ccc(OC(F)(F)F)cc1 [Compound P13] and report
Given back: 1 (1=10-20%)

Asked: // repeat for CCOC(=O)c1nn(-c2ccc(OC(F)(F)F)cc2)c2cccc([S+]([O-])CC)c2c1=O (stereo not drawn) [Compound P24] and report
Given back: 1 (1=10-20%)

Asked: // repeat for CCCCCCCCSC(=O)c1nn(-c2ccc(OC(F)(F)F)cc2)c2cccc(S(C)(=O)=O)c2c1=O [Compound P90] and report
Given back: 0 (0=0%)

Asked: // repeat for CCOC(=O)c1nn(-c2ccc(OC(F)(F)F)cc2)c2cccc(SC3CC3)c2c1=O [Compound P33] and report
Given back: 0 (0=0%)

Asked: // repeat for CS(=O)(=O)c1cccc2c1c(=O)c(C(=O)SCCCc1ccccc1)nn2-c1ccc(OC(F)(F)F)cc1 [Compound P92] and report
Given back: 1 (1=10-20%)

Asked: // repeat for CCOC(=O)c1nn(-c2ccc(OC(F)(F)F)cc2)c2cc(F)cc(S(C)(=O)=O)c2c1=O [Compound P52] and report
Given back: 1 (1=10-20%)

Asked: // repeat for CCOC(=O)c1nn(-c2ccc(OC(F)(F)F)cc2)c2cc(C#N)cc(S(C)(=O)=O)c2c1=O [Compound P48] and report
Given back: 0 (0=0%)

---

tested on: Amaranthus retoflexus (AMARE); assay: Post-emergence herbicidal test; assay type: in vivo; details: 1000 g/ha unless otherwise stated, evaluated after 13 days
measured_metric: percentage damage caused to the plant, AMARE (five-point scale)

Asked: Record lookup: for Amaranthus retoflexus (AMARE), what percentage damage caused to the plant, AMARE (five-point scale) belongs to CCOC(=O)c1nn(-c2ccc(OC(F)(F)F)cc2)c2cccc(S(=O)(=O)CC(F)(F)F)c2c1=O ?
Given back: 1 (1=10-20%)

Asked: // repeat for CCOC(=O)c1nn(-c2ccc(OC(F)(F)F)cc2)c2ccc(Br)c(SC)c2c1=O and report
Given back: 0 (0=0%)

Asked: // repeat for CCOC(=O)c1nn(-c2ccc(OC(F)(F)F)cc2)c2cc(C)cc(S(C)(=O)=O)c2c1=O and report
Given back: 1 (1=10-20%)

Asked: // repeat for CCOC(=O)c1nn(-c2ccc(OC(F)(F)F)cc2)c2ccc(C)c(S(C)(=O)=O)c2c1=O and report
Given back: 1 (1=10-20%)

Asked: // repeat for COC(C)(C)CCOC(=O)c1nn(-c2ccc(OC(F)(F)F)cc2)c2cccc(S(C)(=O)=O)c2c1=O and report
Given back: 1 (1=10-20%)

Asked: // repeat for O=C(O)c1nn(-c2ccc(OC(F)(F)F)cc2)c2cccc(S(=O)(=O)C3CC3)c2c1=O and report
Given back: 0 (0=0%)

Asked: // repeat for CC(OC(=O)c1nn(-c2ccc(OC(F)(F)F)cc2)c2cccc(S(C)(=O)=O)c2c1=O)C1CC1 (stereo not shown) and report
Given back: 1 (1=10-20%)
